The reported numbers originate from patent US9763884B2.

- Method Summary: Pharmacokinetics of three single doses of sublingual testosterone solution in healthy premenopausal women
- Stated Conditions: female, human, in vivo, 0.75 mg, Tmax, total testosterone, serum; 0.75 mg sublingual; mean ± SD
Assay Readout: Tmax (min)
Answers are plain numbers, in min.

Entry under review: `C[C@]12CC[C@H]3[C@@H](CCC4=CC(=O)CC[C@@]43C)[C@@H]1CC[C@@H]2O` . Reported Tmax?
14.3

* * *

- Method Summary: Pharmacokinetics of three single doses of sublingual testosterone solution in healthy premenopausal women
- Stated Conditions: female, human, in vivo, 0.25 mg, Cmax, free testosterone, serum; 0.25 mg sublingual; geometric mean (% CV)
Assay Readout: Cmax (ng/mL)
Numbers only, in ng/mL.

Entry under review: C[C@]12CC[C@H]3[C@@H](CCC4=CC(=O)CC[C@@]43C)[C@@H]1CC[C@@H]2O [Testosterone, testosterone] . Reported Cmax?
0.021
